# PROTOCOL_TEXT: qHTS of TDP-43 Inhibitors; note: nearly all actives have a fitted effect of over 50% in size
# CONDITION_SUMMARY: TDP-43 expressing yeast growth rescue, BacTiter-Glo, 24 h; series mostly up to 46.1 µM
# Description: The goal of this project is to identify new chemical probes capable of reversing the toxicity associated with TDP-43 which is associated with frontotemporal lobar degeneration and amyotrophic lateral sclerosis. […] To this end, a miniaturized assay was developed to be screened against the Molecular Libraries Small Molecule Repository (MLSMR) to discover TDP-43 inhibitors. Please note that in the set-up this yeast-based assay compounds that inhibit as TDP-43, have a read-out as activators. […]
The campaign covered roughly 410,000 compounds. About 7,200 (1.8%) were called active. Roughly 7% stayed inconclusive and do not appear here. The full list was thinned out, with actives kept by preference.
EXPERIMENTAL_READOUT: outcome

Here are 5 compounds together with their reported answers.
COc1ccc(-n2nnnc2C(c2cccc3ccccc23)N2CCC(n3c(=O)[nH]c4ccccc43)CC2)cc1 (stereo not given) :: inactive
COC(=O)C1=C(c2ccc(F)cc2OCc2ccccc2)C[C@@H]2CC[C@H]1N2C(=O)NCc1ccc2[nH]ccc2c1 :: inactive
c1cc2c(c(NC3=NCCCS3)c1)CCCC2 :: inactive
COc1ccc(CNCCc2ccc3c(c2)OCO3)c(OC)c1OC :: inactive
C[C@]12CCC3C(CC[C@H]4[C@H](O)[C@H](O)CC[C@]34C)C1CCC2=O (stereo not given in full) :: inactive

Reported outcome for Cc1cc(C=C2C(=O)NC(=O)NC2=O)c(C)n1-c1ccncc1 was inactive

Reported outcome for Cc1nn(-c2ccccc2)c(C)c1NC(=O)COC(=O)Cc1ccccc1 was inactive

Reported outcome for Oc1cc2c(cc1CN1CCN(c3ccccc3)CC1)OCO2 was inactive

Reported outcome for Cc1cc(=O)oc2c(C)c(OCC(=O)N3CCN(Cc4ccc5c(c4)OCO5)CC3)ccc12 was inactive

Reported outcome for Cc1ccc(-n2c(C)cc(/C=C3\C(=O)NC(=O)N(C)C3=O)c2C)cc1C was inactive
